assay: Bi-directional protease inhibitor transport across Caco-2 monolayers (efflux ratio); assay type: in vitro ADME; conditions: human, Caco-2; control (no inhibitor), compound C 30 μM, 90 min; read-out: efflux ratio (ER) of compound C
attributeMeasured: efflux ratio at 90 min, 30 μM

INSERT INTO measurements (inputsmiles, reading) VALUES
  ('CCN1CCC[C@@H]1CNc1nc2ccc(S(=O)(=O)N(CC(C)C)C[C@@H](O)[C@H](Cc3ccccc3)NC(=O)O[C@H]3CO[C@H]4OCC[C@H]43)cc2s1', 119);

* * *

assay: Phase I trial: effect of compound A on single dose pharmacokinetics of saquinavir in healthy subjects; conditions: human, in vivo, 1000 mg, AUClast of saquinavir
attributeMeasured: AUC(0-t)

INSERT INTO measurements (inputsmiles, reading) VALUES
  ('CC(C)(C)NC(=O)[C@@H]1C[C@@H]2CCCC[C@@H]2CN1C[C@@H](O)[C@H](Cc1ccccc1)NC(=O)[C@H](CC(N)=O)NC(=O)c1ccc2ccccc2n1', '515 ng·h/mL');

Data provenance: patent US8557854B2
